A collection of binders and their measured EC50
# targetDesc: human FGFR1c + KLB receptor complex on HEK293 iLite FGF21 reporter cells (human, UniProt P11362 22-822; Q86Z14 1-1044)
# Sequence (P11362 22-822, chain 1 of 2): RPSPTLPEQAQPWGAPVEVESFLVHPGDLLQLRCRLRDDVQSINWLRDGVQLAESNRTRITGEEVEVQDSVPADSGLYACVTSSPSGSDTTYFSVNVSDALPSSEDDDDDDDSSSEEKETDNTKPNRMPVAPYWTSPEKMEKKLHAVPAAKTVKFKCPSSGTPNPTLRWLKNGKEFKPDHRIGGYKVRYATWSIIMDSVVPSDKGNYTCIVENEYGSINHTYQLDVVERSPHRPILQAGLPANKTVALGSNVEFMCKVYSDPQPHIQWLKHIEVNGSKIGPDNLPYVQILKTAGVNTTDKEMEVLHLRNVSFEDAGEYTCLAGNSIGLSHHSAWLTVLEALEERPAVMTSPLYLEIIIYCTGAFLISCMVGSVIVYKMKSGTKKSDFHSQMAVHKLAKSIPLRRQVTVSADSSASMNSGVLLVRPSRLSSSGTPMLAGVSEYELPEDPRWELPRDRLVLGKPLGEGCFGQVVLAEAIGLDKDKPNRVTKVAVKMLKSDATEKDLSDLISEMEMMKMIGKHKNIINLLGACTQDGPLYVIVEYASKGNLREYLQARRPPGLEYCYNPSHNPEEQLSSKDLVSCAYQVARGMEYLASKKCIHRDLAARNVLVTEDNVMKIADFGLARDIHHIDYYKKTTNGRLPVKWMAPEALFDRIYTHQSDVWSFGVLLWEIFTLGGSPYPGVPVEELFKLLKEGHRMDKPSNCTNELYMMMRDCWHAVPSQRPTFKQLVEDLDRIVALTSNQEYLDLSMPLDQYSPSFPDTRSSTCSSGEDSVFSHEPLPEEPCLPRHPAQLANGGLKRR
# Sequence (Q86Z14 whole entry, chain 2 of 2): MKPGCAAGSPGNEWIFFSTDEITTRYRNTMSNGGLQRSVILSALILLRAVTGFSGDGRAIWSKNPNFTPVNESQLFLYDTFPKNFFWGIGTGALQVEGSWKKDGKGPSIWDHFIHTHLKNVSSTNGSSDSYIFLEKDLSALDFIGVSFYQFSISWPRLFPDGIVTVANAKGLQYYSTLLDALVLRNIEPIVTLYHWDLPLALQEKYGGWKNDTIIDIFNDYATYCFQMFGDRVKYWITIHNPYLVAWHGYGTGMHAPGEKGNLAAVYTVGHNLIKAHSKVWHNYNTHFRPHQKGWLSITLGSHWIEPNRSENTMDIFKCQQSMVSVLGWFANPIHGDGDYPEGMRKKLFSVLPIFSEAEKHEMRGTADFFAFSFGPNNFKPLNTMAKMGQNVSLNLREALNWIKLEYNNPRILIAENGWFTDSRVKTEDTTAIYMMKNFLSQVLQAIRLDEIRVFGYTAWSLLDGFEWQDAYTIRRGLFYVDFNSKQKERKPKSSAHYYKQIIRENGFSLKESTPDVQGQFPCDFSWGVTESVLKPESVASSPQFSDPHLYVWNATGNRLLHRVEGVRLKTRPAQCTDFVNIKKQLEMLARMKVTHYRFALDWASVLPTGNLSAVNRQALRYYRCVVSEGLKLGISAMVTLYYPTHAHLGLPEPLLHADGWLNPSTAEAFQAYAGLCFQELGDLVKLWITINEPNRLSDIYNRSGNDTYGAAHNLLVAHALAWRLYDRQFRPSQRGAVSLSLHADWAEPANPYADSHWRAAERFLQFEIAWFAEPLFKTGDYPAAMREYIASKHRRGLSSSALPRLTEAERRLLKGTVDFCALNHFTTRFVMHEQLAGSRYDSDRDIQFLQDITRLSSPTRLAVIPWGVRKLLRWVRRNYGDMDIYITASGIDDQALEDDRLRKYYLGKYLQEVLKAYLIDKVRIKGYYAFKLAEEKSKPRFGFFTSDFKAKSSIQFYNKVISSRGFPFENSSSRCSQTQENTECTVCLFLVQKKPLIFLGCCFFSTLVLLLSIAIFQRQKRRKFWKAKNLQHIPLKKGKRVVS
# assayInfo: cell-based or functional assay
Express your answer in nM, writing the number without its unit.

Answered cases to consult:
[
  {
    "binder": "Ab0362 (antibody, IgG4, V domains shown) VH: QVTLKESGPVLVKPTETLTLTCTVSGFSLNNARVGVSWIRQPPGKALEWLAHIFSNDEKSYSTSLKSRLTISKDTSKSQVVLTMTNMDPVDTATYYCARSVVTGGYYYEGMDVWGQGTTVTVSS VL: SYVLTQPPSVSVAPGQTARITCGGSNIGSESVHWYQQKPGQAPVLVVYTESDRPSGIPERFSGSNSGNTATLTISRVEAGDEADYYCQVWAGSSDHVVFGGGTKLTVLG",
    "unitString": "nM",
    "EC50": 11.6
  },
  {
    "binder": "Ab0453 (antibody, IgG4, V domains shown) VH: QVTLKESGPVLVKPTETLTLTCTVSGFSLSNARVGVSWIRQPPGKALEWLAHIFSNDEKSYSTSLKSRLTISKDTSKSQVVLTMTNMDPVDTATYYCARSVVTGGYYYEGMDVWGQGTTVTVSS VL: SYVLTQPPSVSVAPGQTARITCGGSNIGSESVHWYQQKPGQAPVLVVYSESDRPSGIPERFSGSNSGNTATLTISRVEAGDEADYYCQVWEGESDHVVFGGGTKLTVLG",
    "unitString": "nM",
    "EC50": 0.03
  },
  {
    "binder": "Ab0357 (antibody, IgG4, V domains shown, IgG4 PE) VH: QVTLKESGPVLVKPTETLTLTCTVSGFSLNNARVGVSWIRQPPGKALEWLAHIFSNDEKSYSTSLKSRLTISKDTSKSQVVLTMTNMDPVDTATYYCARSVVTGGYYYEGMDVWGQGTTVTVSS VL: SYVLTQPPSVSVAPGQTARITCGGSNIGSESVHWYQQKPGQAPVLVVYEASDRPSGIPERFSGSNSGNTATLTISRVEAGDEADYYCQVWEGSSDHVVFGGGTKLTVLG",
    "unitString": "nM",
    "EC50": 0.08
  }
]

Continue with the next binder.
Give reported EC50 value for Ab0330 (antibody, IgG4, V domains shown) VH: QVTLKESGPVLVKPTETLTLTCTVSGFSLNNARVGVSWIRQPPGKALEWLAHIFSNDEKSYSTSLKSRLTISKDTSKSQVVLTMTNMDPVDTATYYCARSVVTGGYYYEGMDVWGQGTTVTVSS VL: SYVLTQPPSVSVAPGQTARITCGGSNIGSESVHWYQQKPGQAPVLVVYSESDRPSGIPERFSGSNSGNTATLTISRVEAGDEADYYCQVWAGESDHVVFGGGTKLTVLG
0.15
